Each recorded value in this set is attributed to ChEMBL document CHEMBL4371025.

selectivity ratio: recorded values
system: CYP3A4; assay: Selectivity ratio of IC50 for CYP3A4 in human liver microsomes using midazolam as substrate to IC50 for rat FFAH expressed in Escherichia coli; assay type: toxicity; details: probe midazolam, read-out: Ratio IC50

Form field: reported selectivity ratio of Nc1ncc(C(=O)N[C@H]2CC/C(=C\c3cccc(Oc4ccc(C(F)(F)F)cn4)c3)CC2)cn1 (configuration not stated)
> 5000

Please turn your attention to the following entry.
Form field: reported selectivity ratio of Cc1cc(C(=O)N[C@H]2CC/C(=C\c3cccc(Oc4ccc(C(F)(F)F)cn4)c3)CC2)cnc1N (configuration not stated)
> 5000

###

clearance: recorded values
test: Clearance in Sprague-Dawley rat at 3 mg/kg, iv administered as single dose by LC-MS/MS analysis; type: ADME, organism-based; details: in vivo
Expressed in mL/min/kg, but write only the number.

Form field: reported clearance of O=C(N[C@H]1CC/C(=C\c2cccc(Oc3ccc(C(F)(F)F)cn3)c2)CC1)c1cccnc1 (centres undefined)
2.4

Others:
Form field: reported clearance of Cc1cc(C(=O)N[C@H]2CC/C(=C\c3cccc(Oc4ccc(C(F)(F)F)cn4)c3)CC2)cnc1N (centres undefined)
0.8

Form field: reported clearance of Nc1ncc(C(=O)N[C@H]2CC/C(=C\c3cccc(Oc4ccc(C(F)(F)F)cn4)c3)CC2)cn1 (centres undefined)
0.6

Form field: reported clearance of Nc1ccc(C(=O)N[C@H]2CC/C(=C\c3cccc(Oc4ccc(C(F)(F)F)cn4)c3)CC2)cn1 (centres undefined)
0.7

###

half-life: recorded values
assay: Elimination half life in Sprague-Dawley rat at 3 mg/kg, iv administered as single dose by LC-MS/MS analysis; type: ADME, organism-based; conditions: in vivo, read-out: beta t1/2 (converted)

Form field: reported half-life of Cc1cc(C(=O)N[C@H]2CC/C(=C\c3cccc(Oc4ccc(C(F)(F)F)cn4)c3)CC2)cnc1N (centres undefined)
1020 min

Others:
Form field: reported half-life of Nc1ncc(C(=O)N[C@H]2CC/C(=C\c3cccc(Oc4ccc(C(F)(F)F)cn4)c3)CC2)cn1 (centres undefined)
1030 min

Form field: reported half-life of O=C(N[C@H]1CC/C(=C\c2cccc(Oc3ccc(C(F)(F)F)cn3)c2)CC1)c1cccnc1 (centres undefined)
306 min

Form field: reported half-life of Nc1ccc(C(=O)N[C@H]2CC/C(=C\c3cccc(Oc4ccc(C(F)(F)F)cn4)c3)CC2)cn1 (centres undefined)
552 min

###

Biological target: Fatty-acid amide hydrolase 1 (Homo sapiens, UniProt O00519)
Sequence (O00519 whole entry): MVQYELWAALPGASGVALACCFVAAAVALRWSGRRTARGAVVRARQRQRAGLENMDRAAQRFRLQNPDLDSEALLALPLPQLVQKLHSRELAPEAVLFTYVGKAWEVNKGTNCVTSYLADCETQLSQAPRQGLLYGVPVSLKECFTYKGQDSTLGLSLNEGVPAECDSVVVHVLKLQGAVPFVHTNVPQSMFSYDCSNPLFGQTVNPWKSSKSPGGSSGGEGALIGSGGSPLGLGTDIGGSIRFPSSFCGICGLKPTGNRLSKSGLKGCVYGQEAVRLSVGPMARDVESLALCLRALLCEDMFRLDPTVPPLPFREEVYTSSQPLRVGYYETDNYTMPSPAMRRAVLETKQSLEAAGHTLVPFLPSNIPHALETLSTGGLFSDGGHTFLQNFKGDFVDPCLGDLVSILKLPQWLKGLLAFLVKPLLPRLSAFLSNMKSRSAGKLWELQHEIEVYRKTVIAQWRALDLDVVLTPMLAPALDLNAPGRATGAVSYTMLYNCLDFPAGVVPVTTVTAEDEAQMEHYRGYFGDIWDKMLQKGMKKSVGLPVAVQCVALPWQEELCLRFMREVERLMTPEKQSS
IC50: recorded values
Give the figure together with its unit, number first.

The cases that follow already have their IC50 on record.
Form field: reported IC50 of Nc1ncc(C(=O)NC2CCC(=Cc3cccc(Oc4ccc(C(F)(F)F)cn4)c3)CC2)cc1Cl (racemic)
4 nM

Form field: reported IC50 of O=C(NC1CCC(=Cc2cccc(Oc3ccc(C(F)(F)F)cn3)c2)CC1)c1cccnn1 (racemic)
9 nM

Others:
Form field: reported IC50 of Nc1ccc(C(=O)N[C@H]2CC/C(=C/c3cccc(Oc4ccc(C(F)(F)F)cn4)c3)CC2)cn1 (stereo not given)
450 nM

Form field: reported IC50 of Nc1ncc(C(=O)N[C@H]2CC/C(=C/c3cccc(Oc4ccc(C(F)(F)F)cn4)c3)CC2)cn1 (stereo not given)
83 nM

Form field: reported IC50 of Nc1ccc(C(=O)N[C@H]2CC/C(=C\c3cccc(Oc4ccc(C(F)(F)F)cn4)c3)CC2)cn1 (stereo not given)
1.2 nM

Form field: reported IC50 of O=C(Nc1cccnc1)N1CCC(Cc2cccc(Oc3ccc(C(F)(F)F)cn3)c2)CC1
2.6 nM

Form field: reported IC50 of Nc1ncc(C(=O)N[C@H]2CC/C(=C\c3cccc(Oc4ccc(C(F)(F)F)cn4)c3)CC2)cn1 (stereo not given)
0.6 nM

Form field: reported IC50 of O=C(Nc1cccnn1)N1CCC(=Cc2cccc(Oc3ccc(C(F)(F)F)cn3)c2)CC1
1.8 nM

Form field: reported IC50 of O=C(NC1CCC(=Cc2cccc(Oc3ccc(C(F)(F)F)cn3)c2)CC1)c1ccc(Cl)nc1 (racemic)
5.1 nM

Form field: reported IC50 of Nc1ncc(C(=O)NC2CCC(=Cc3cccc(Oc4ccc(C(F)(F)F)cn4)c3)CC2)cn1 (racemic)
2 nM
